# key: entry, value: inhibition
# PROTOCOL: NOD1 signaling inhibitors, primary screen, cell-based, luminescence, uHTS (AID 1578);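 further: HEK-293T reporter cells stimulated with the NOD1 agonist gamma-tri-DAP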
# MEASUREMENT_PARAMETERS: NOD1-driven NF-kB luciferase reporter cells, at 4 µM, stronger effect = higher value
Screen size: about 290,000 compounds; about 3,000 (1%) were called active. The sample holds actives, similar compounds and a random draw of the others, so the mix is not that of the screen.

MOLECULE: COCCn1nnnc1C(c1ccccn1)N1CCN(c2cc(Cl)ccc2C)CC1 (stereo not given)
UNITS_SYMBOL: %
inhibition: -10.8

MOLECULE: Cc1ccc(C)c(S(=O)(=O)N=Nc2c(O)[nH]c3ccccc23)c1
UNITS_SYMBOL: %
inhibition: -24.6

MOLECULE: COc1ccccc1C(=O)O/N=C(\N)c1ccccn1
UNITS_SYMBOL: %
inhibition: -10

MOLECULE: O=C(Cc1cccs1)NCCSc1c(-c2ccc(Cl)cc2)[nH]c2ccccc12
UNITS_SYMBOL: %
inhibition: 30.7

MOLECULE: COc1cc(OC)c2cc(C(=O)N[C@H](C(=O)N3CCC[C@H]3C(=O)O)C(C)C)n(C)c2c1
UNITS_SYMBOL: %
inhibition: -17.5

MOLECULE: O=C(Nc1ccncc1)c1cccs1
UNITS_SYMBOL: %
inhibition: 37.2

MOLECULE: COc1cc(/C=C2\C(=O)NN(c3ccccc3)C2=O)cc([N+](=O)[O-])c1O
UNITS_SYMBOL: %
inhibition: -38.3

MOLECULE: Cc1ccc(S(=O)(=O)N2CCN=C2SCc2ccccc2)cc1
UNITS_SYMBOL: %
inhibition: -1.7

MOLECULE: O=[N+]([O-])c1ccc(/C=[N+](\[O-])[C@@H]2CCCC[C@@H]2/[N+]([O-])=C/c2ccc([N+](=O)[O-])o2)o1
UNITS_SYMBOL: %
inhibition: -2

MOLECULE: COc1ccc(OC)c(NC(=O)Cc2c(C(=O)O)n(C)c3ccccc23)c1
UNITS_SYMBOL: %
inhibition: -25.2

MOLECULE: CCOC(=O)Cc1csc(NC(=O)CSc2ncnc3c2cnn3-c2ccccc2Cl)n1
UNITS_SYMBOL: %
inhibition: -4.7

MOLECULE: O=C(Sc1nnc(-c2ccccc2)o1)N1c2ccccc2Sc2ccccc21
UNITS_SYMBOL: %
inhibition: -37.4

MOLECULE: COc1ccc(NC(=O)c2ccc3c(c2)NC(=O)CS3)cc1S(=O)(=O)Nc1ccc(Br)cc1
UNITS_SYMBOL: %
inhibition: 4

MOLECULE: Cc1nc(Cl)c2c(n1)NC(=O)CO2
UNITS_SYMBOL: %
inhibition: 0.5

MOLECULE: Cc1ccc(NS(=O)(=O)c2cc(NC(=O)c3cc(=O)[nH]c(=O)[nH]3)ccc2Cl)c(C)c1
UNITS_SYMBOL: %
inhibition: 12.4

MOLECULE: CC1C=CCC2C(=O)N(c3cccc(C(=O)Nc4ccc(Br)cc4)c3)C(=O)C12 (stereo not given)
UNITS_SYMBOL: %
inhibition: -16.6

MOLECULE: Cc1ccccc1OCC(=O)Nc1ccc2[nH]ncc2c1
UNITS_SYMBOL: %
inhibition: -17.7

MOLECULE: CC1=Cc2ccccc2C(C#N)N1C(=O)c1ccccc1 (stereo not given)
UNITS_SYMBOL: %
inhibition: 31.4

MOLECULE: O=C(Nc1nonc1NC(=O)c1cccs1)c1cccs1
UNITS_SYMBOL: %
inhibition: 58.9

MOLECULE: Cc1ccc(NC(=O)Cc2ccccc2)c(C)c1
UNITS_SYMBOL: %
inhibition: -29.9

MOLECULE: CC(C)OC1(c2ccccc2)OC(=O)c2ccccc21 (stereo not given)
UNITS_SYMBOL: %
inhibition: 13.3

MOLECULE: C=CCn1c2ccccc2c2nnc(SCCCn3c(=O)[nH]c4ccccc43)nc21
UNITS_SYMBOL: %
inhibition: 60.9

MOLECULE: Cc1ccccc1NC(=O)COC(=O)C1(C)CC1(Cl)Cl (stereo not given)
UNITS_SYMBOL: %
inhibition: -11.4

MOLECULE: Cc1cc(C)cc(NC(=O)C[n+]2ccccc2)c1
UNITS_SYMBOL: %
inhibition: 45.4

MOLECULE: COc1ccc(-c2nnc(SCC(=O)N3c4ccccc4Sc4ccccc43)o2)cc1
UNITS_SYMBOL: %
inhibition: -16.3

MOLECULE: O=C(CCCn1cnc2ccccc2c1=O)Nc1ccccc1F
UNITS_SYMBOL: %
inhibition: -9.5

MOLECULE: N/C(=N\OC(=O)c1ccc([N+](=O)[O-])cc1Cl)c1ccccn1
UNITS_SYMBOL: %
inhibition: 45.8

MOLECULE: CCn1c2ccccc2c2nnc(SCCCn3c(=O)[nH]c4ccccc43)nc21
UNITS_SYMBOL: %
inhibition: -22.4

MOLECULE: O=C(CCl)NCc1cc(-c2ccc(Cl)cc2)no1
UNITS_SYMBOL: %
inhibition: 87.7

MOLECULE: O=C(COc1ccccc1)Nc1ccc2[nH]ncc2c1
UNITS_SYMBOL: %
inhibition: -11.3

MOLECULE: CC(C)c1ccccc1OCC(=O)Nc1ccc2[nH]ncc2c1
UNITS_SYMBOL: %
inhibition: 47.7

MOLECULE: C=CCn1c2ccccc2c2nnc(SCCN3CCCCC3)nc21
UNITS_SYMBOL: %
inhibition: 33.2

MOLECULE: CC(=O)Nc1nc2c(ccc3ccccc32)s1
UNITS_SYMBOL: %
inhibition: -38

MOLECULE: O=C(NCc1ccccc1)c1cc[n+](CC(=O)c2cccs2)cc1
UNITS_SYMBOL: %
inhibition: 3.5

MOLECULE: COc1ccc(C(=O)C(OC(=O)CNC(=O)c2ccco2)c2ccccc2)cc1 (stereo not given)
UNITS_SYMBOL: %
inhibition: -7.7

MOLECULE: CC(=O)c1cccc(NC(=O)c2ccc(N(Cc3ccccc3C)S(C)(=O)=O)cc2)c1
UNITS_SYMBOL: %
inhibition: 6.4

MOLECULE: CCOC(=O)C1CCCN(C(=O)COc2ccccc2F)C1 (stereo not given)
UNITS_SYMBOL: %
inhibition: -25.1

MOLECULE: N/C(=N\OC(=O)c1ccccc1Cl)c1ccccn1
UNITS_SYMBOL: %
inhibition: 54.7

MOLECULE: Cc1oc(-c2ccccc2Cl)nc1CN1CCCCC1CO (stereo not given)
UNITS_SYMBOL: %
inhibition: -13.9

MOLECULE: CCCCNC(=O)Nc1c(C(=O)OCC)[nH]c2ccccc12
UNITS_SYMBOL: %
inhibition: -25.1

MOLECULE: CC(C)CCN1CCN(Cc2cccn2-c2nccs2)CC1CCO (stereo not given)
UNITS_SYMBOL: %
inhibition: -20.1

MOLECULE: NS(=O)(=O)c1cccc(NC(=O)COC(=O)CCSc2ccccc2)c1
UNITS_SYMBOL: %
inhibition: -26.8

MOLECULE: CCN(CC)CCNCc1cc(Br)ccc1OCC(=O)NCc1ccccc1
UNITS_SYMBOL: %
inhibition: 7.4

MOLECULE: COc1ccc(-c2nnc(SC(=O)N3c4ccccc4Sc4ccccc43)o2)cc1
UNITS_SYMBOL: %
inhibition: 65.2

MOLECULE: O=C(Nc1ccnn1C1CCN(C2CCCCC2)CC1)c1ccccc1
UNITS_SYMBOL: %
inhibition: -6.5

---

# key: entry, value: inhibition
# PROTOCOL: NOD1 signaling inhibitors, primary screen, cell-based, luminescence, uHTS (AID 1578);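 further: HEK-293T reporter cells stimulated with the NOD1 agonist gamma-tri-DAP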
# MEASUREMENT_PARAMETERS: NOD1-driven NF-kB luciferase reporter cells, at 4 µM, stronger effect = higher value
Screen size: about 290,000 compounds; about 3,000 (1%) were called active. The sample as a whole holds a higher share of actives than the screen did.

COMPOUND: COc1ccc(C(CCN(Cc2ccc(OC)c(OC)c2)C(C)=O)C(C)C)cc1 (stereo not given)
UNITS_SYMBOL: %
inhibition: -0.7
--
COMPOUND: COc1ccc(CNCCC(c2ccc(OC(C)C)cc2)c2ccccc2OC)cc1OC (stereo not given)
UNITS_SYMBOL: %
inhibition: -0.9
--
COMPOUND: CC(=O)C1=C(O)C(=O)N(c2nccs2)C1c1ccccc1 (stereo not given)
UNITS_SYMBOL: %
inhibition: -8.5
--
COMPOUND: O=C(C1=C(O)C(=O)N(c2nccs2)C1c1ccccc1)c1cc2ccccc2o1 (stereo not given)
UNITS_SYMBOL: %
inhibition: -8.9
--
COMPOUND: CC(=O)c1ccc(N2CCN(S(=O)(=O)c3ccc4c5c3CC(=O)N5CC(C)S4)CC2)cc1 (stereo not given)
UNITS_SYMBOL: %
inhibition: -20.1

---

# PROTOCOL: NOD1 signaling inhibitors, primary screen, cell-based, luminescence, uHTS (AID 1578);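 further: HEK-293T reporter cells stimulated with the NOD1 agonist gamma-tri-DAP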
# MEASUREMENT_PARAMETERS: NOD1-driven NF-kB luciferase reporter cells, at 4 µM
Screen size: about 290,000 compounds; about 3,000 (1%) were called active. Cut-off read from the data, not from the text of the source: active = inhibition mostly above about 36% (no sharp cut-off); inactive = mostly below about 34%. What follows is part of a selection rich in actives, with near analogues and random picks from the rest.
Labels: active, inactive

MOLECULE: CC1CCN(S(=O)(=O)c2nnc(NC(=O)c3cccc([N+](=O)[O-])c3)s2)CC1
LABEL: inactive
//
MOLECULE: Cc1ccc(-c2csc(C3=C(O)CN(NC(=O)c4ccc([N+](=O)[O-])cc4)C3=N)n2)cc1
LABEL: inactive
//
MOLECULE: O=C1N(c2ccccc2)C[C@@H]2C[C@@H](c3cc4ccccc4o3)N3CCC[C@@]123
LABEL: active
//
MOLECULE: O=C1N(c2ccccc2)C[C@@H]2C[C@@H](c3cccc4c3OCO4)N3CCC[C@@]123
LABEL: inactive
//
MOLECULE: CCCCCCCCCCCC(=O)NC(C(=O)O)C(O)c1ccccc1 (stereo unspecified)
LABEL: active
//
MOLECULE: O=c1[nH]c(C2CCN(S(=O)(=O)c3ccc(C(F)(F)F)cc3)CC2)nc2c1nnn2Cc1ccccc1
LABEL: inactive
//
MOLECULE: N=C1C(c2nc3ccccc3s2)=C(O)CN1NC(=O)c1ccccc1[N+](=O)[O-]
LABEL: inactive
//
MOLECULE: O=C(CCl)c1ccc2c(c1)CCN2C(=O)C1CC1
LABEL: active
//
MOLECULE: CCCCCCCCOC(=O)C(NC(=O)CCC(=O)Nc1ccc(S(N)(=O)=O)cc1)C(O)c1ccccc1 (stereo unspecified)
LABEL: inactive
//
MOLECULE: O=C(CSc1nnnn1-c1ccccc1)Nc1ccccc1
LABEL: inactive
//
MOLECULE: COc1cccc(C(CNC(=O)C(c2ccccc2)c2ccccc2)N(C)C)c1 (stereo unspecified)
LABEL: inactive
//
MOLECULE: Nc1nnc(SCc2c(F)cccc2Cl)s1
LABEL: inactive
//
MOLECULE: CCCCCCCCCCCC(=O)NC(C(=O)OCC)C(O)c1cccc([N+](=O)[O-])c1 (stereo unspecified)
LABEL: inactive
//
MOLECULE: Cc1nc(Nc2nc(CSc3nc4ccccc4[nH]3)cc(=O)[nH]2)nc2ccccc12
LABEL: inactive
//
MOLECULE: Cc1ccc(-c2noc(CCCC(=O)NCC3CCCO3)n2)cc1 (stereo unspecified)
LABEL: inactive
//
MOLECULE: CC(Cl)C(=O)c1ccc2c(c1)CCN2C(=O)C1CC1 (stereo unspecified)
LABEL: inactive
//
MOLECULE: COc1ccc(C(=O)Nc2c(N)nc(SCC(=O)N3CCCCCC3)[nH]c2=O)cc1OC
LABEL: inactive
//
MOLECULE: C(=N\n1cnnc1)/C1CCCCC1
LABEL: inactive
//
MOLECULE: O=C(CSc1nnnn1-c1ccccc1)Nc1ccc(Cl)cc1
LABEL: inactive
//
MOLECULE: Cc1cccc(C(=O)Nc2nnc(S(=O)(=O)N3CCC(C)CC3)s2)c1
LABEL: inactive
//
MOLECULE: CCN(CC)S(=O)(=O)c1ccc(Cl)c(NC(=O)COC(=O)c2ccc(O)cc2)c1
LABEL: inactive

Value source: PubChem BioAssay AID1578
